Values compiled from paper PMC4912613.

# Test system: GNF449-R2 (PfATP4 I203L and P990R, parent Dd2)
# TEST: Cross-resistance EC50 assay, GNF449-R2
# Type: cell-based
# STATED_CONDITIONS: Plasmodium falciparum, SYBR green 72 hour assay, asynchronized parasites, 96-well or 1536-well format
MEASURED_QUANTITY: EC50

- COMPOUND: "CC(NCc1ccccc1)c1cc(Cl)ccc1O (stereo not drawn) [MMV665789]"
  OBSERVED_MEASUREMENT: "0.201 µM"
- COMPOUND: "Cc1nc2ccc3ccc(CNc4ccc(C(=O)CC(CCC(=O)O)C(=O)O)cc4)cc3c2c(=O)[nH]1.Cl (stereo not drawn) [MMV027634]"
  OBSERVED_MEASUREMENT: "0.204 µM"
- COMPOUND: "Brc1ccc(Nc2nc3ccccc3nc2Nc2ccc(Br)cc2)cc1 [MMV007224]"
  OBSERVED_MEASUREMENT: "0.717 µM"
